Reported koff values follow for various binders
target: T1, human insulin-like growth factor-II (IGF-II) (human, UniProt P01344 25-91); experiment: Biacore low-resolution screen, mAb captured, IGF-II injected
T1 construct: also called IGF2; IGF-2
Use s⁻¹ as the unit, but write only the number.

What value of measured koff is listed for mAb 7.234.2 (antibody, V domains shown, Kappa light chain (L5/JK3); also called 7.234.1; 7_234_1) VH: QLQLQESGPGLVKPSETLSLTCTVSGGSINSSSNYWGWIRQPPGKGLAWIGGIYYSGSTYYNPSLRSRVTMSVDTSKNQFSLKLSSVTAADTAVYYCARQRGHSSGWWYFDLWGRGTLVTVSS VL: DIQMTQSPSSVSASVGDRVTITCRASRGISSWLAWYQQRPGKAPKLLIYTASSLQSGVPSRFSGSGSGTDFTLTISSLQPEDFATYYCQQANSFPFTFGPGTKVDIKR ?
0.00029

Look at this binder and give its reported koff. mAb 7.158.2 (antibody, V domains shown, Kappa light chain (L5/JK3); also called 7.158.1; 7_158_1) VH: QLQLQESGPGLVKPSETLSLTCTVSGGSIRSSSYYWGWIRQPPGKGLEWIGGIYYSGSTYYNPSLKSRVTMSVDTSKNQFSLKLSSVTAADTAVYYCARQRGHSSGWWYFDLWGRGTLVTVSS VL: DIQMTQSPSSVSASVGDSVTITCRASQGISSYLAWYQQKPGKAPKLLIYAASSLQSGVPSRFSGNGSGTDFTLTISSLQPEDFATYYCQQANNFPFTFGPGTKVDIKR
0.00067

For the binder shown here, mAb 7.251.3 (antibody, V domains shown, Fully human XenoMouse hybridoma mAb, lambda light chain (V1-13/JL2); also called ATCC PTA-7422) VH: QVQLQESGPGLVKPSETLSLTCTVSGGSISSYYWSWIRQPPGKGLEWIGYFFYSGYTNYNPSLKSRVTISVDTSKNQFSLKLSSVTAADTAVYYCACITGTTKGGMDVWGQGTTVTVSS VL: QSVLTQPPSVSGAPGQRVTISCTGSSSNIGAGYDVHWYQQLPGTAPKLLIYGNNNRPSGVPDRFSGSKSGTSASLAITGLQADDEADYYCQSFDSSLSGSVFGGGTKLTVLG , give the reported koff.
0.00043

Can you share its koff? I mean this binder: mAb 7.34.1 (antibody, V domains shown, Fully human XenoMouse hybridoma mAb, lambda light chain (V1-13/JL2); also called ATCC PTA-7423) VH: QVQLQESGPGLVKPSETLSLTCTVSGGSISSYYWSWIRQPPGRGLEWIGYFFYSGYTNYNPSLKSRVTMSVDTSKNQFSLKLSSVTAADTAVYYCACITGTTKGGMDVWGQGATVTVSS VL: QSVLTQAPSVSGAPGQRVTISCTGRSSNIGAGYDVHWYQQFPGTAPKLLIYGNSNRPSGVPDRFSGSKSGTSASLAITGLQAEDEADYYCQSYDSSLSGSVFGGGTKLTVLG
0.00018
